# Tested on: 966289-007-R4-J1-PDC complex spheroid viability
# protocol description: Anticancer human tumor 966289-007-R4-J1-PDC patient-derived pancreatic adenocarcinoma cell line growth inhibition [RAS]
# condition details: curve of first compound; second compound 3.16 µM
quantity: IC50 (nM)
// note: answer is a bare numeric in nM

Quick note, IC50 for CC(C)n1nc(-c2ccc3oc(N)nc3c2)c2c(N)ncnc21 + C#Cc1c(F)ccc2cc(O)cc(-c3ncc4c(N5CC6CCC(C5)N6)nc(OCC56CCCN5CC(F)C6)nc4c3F)c12 landed at 41.5

====

# Test system: 966289-007-R4-J1-PDC complex spheroid viability
# protocol description: Anticancer human tumor 966289-007-R4-J1-PDC cell line growth inhibition [RAS];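 note: spheroids exposed to agents for one week before readout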;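 for viability, T/C: percent viability relative to DMSO vehicle control wells as 100%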
# condition details: second compound 0.0316 µM; first compound 0.316 µM; stronger effect = lower value
What viability, T/C was measured for each of the following?

So for Cc1nc(N2CCC3(CC2)COC(C)C3N)c(CO)nc1Sc1ccnc(N)c1Cl (configuration not stated) + C=CC(=O)N1CCN(c2nc(OCC3CCCN3C)nc3c(F)c(-c4nc(N)cc(C)c4C(F)(F)F)c(Cl)cc23)C(C)C1 , the logged viability, T/C turned out to be 110%

The molecule listed as CCC(CC)c1cc(NC2CCC(N)C2)n2nccc2n1 (configuration not stated) + C=CC(=O)N1CCN(c2nc(OCC3CCCN3C)nc3c(F)c(-c4nc(N)cc(C)c4C(F)(F)F)c(Cl)cc23)C(C)C1 shows viability, T/C equal to 103%

Measured viability, T/C of CC1(O)CCCC1n1c(=O)c(C(F)F)cc2cnc(NC3CCN(S(C)(=O)=O)CC3)nc21 (configuration not stated) + C=CC(=O)N1CCN(c2nc(OCC3CCCN3C)nc3c(F)c(-c4nc(N)cc(C)c4C(F)(F)F)c(Cl)cc23)C(C)C1 : 26.9%

Data point: CCN1CCN(Cc2ccc(Nc3ncc(F)c(-c4cc(F)c5nc(C)n(C(C)C)c5c4)n3)nc2)CC1 + C#Cc1c(F)ccc2cc(O)cc(-c3ncc4c(N5CC6CCC(C5)N6)nc(OCC56CCCN5CC(F)C6)nc4c3F)c12 ; viability, T/C = 92.1%

// recorded viability, T/C for CC(=O)OC12COC1CC(O)C1(C)C(=O)C(O)C3=C(C)C(OC(=O)C(O)C(NC(=O)OC(C)(C)C)c4ccccc4)CC(O)(C(OC(=O)c4ccccc4)C21)C3(C)C (configuration not stated) + C=CC(=O)N1CCN(c2nc(OCC3CCCN3C)nc3c(F)c(-c4nc(N)cc(C)c4C(F)(F)F)c(Cl)cc23)C(C)C1 : 10.9%

Notebook: CC(=O)OC12COC1CC(O)C1(C)C(=O)C(O)C3=C(C)C(OC(=O)C(O)C(NC(=O)OC(C)(C)C)c4ccccc4)CC(O)(C(OC(=O)c4ccccc4)C21)C3(C)C (configuration not stated) + C#Cc1c(F)ccc2cc(O)cc(-c3ncc4c(N5CC6CCC(C5)N6)nc(OCC56CCCN5CC(F)C6)nc4c3F)c12 , viability, T/C read as 20.4%

Form field viability, T/C, entry CC(Nc1ccc2c(c1)OCCn1cc(N3C(=O)OCC3C(F)F)nc1-2)C(N)=O (configuration not stated) + C#Cc1c(F)ccc2cc(O)cc(-c3ncc4c(N5CC6CCC(C5)N6)nc(OCC56CCCN5CC(F)C6)nc4c3F)c12 : 100%

====

# System: 966289-007-R4-J1-PDC complex spheroid viability
# protocol description: Anticancer human tumor 966289-007-R4-J1-PDC cell line growth inhibition [RAS];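 note: spheroids exposed to agents for one week before readout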;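 for viability, T/C: percent viability relative to DMSO vehicle control wells as 100%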
# condition details: second compound 1 µM; first compound 0.0316 µM; stronger effect = lower value
For each entry below, report its viability, T/C value.
Answer with a number only, understood to be in %.

Measured viability, T/C of CCC(CC)c1cc(NC2CCC(N)C2)n2nccc2n1 (centres undefined) + C=CC(=O)N1CCN(c2nc(OCC3CCCN3C)nc3c(F)c(-c4nc(N)cc(C)c4C(F)(F)F)c(Cl)cc23)C(C)C1 : 91.4

viability, T/C recorded for this compound, Cc1nc(N2CCC3(CC2)COC(C)C3N)c(CO)nc1Sc1ccnc(N)c1Cl (centres undefined) + C#Cc1c(F)ccc2cc(O)cc(-c3ncc4c(N5CC6CCC(C5)N6)nc(OCC56CCCN5CC(F)C6)nc4c3F)c12 , is 93.1

So for CC(C)NCC(C(=O)N1CCN(c2ncnc3c2C(C)CC3O)CC1)c1ccc(Cl)cc1 (centres undefined) + C=CC(=O)N1CCN(c2nc(OCC3CCCN3C)nc3c(F)c(-c4nc(N)cc(C)c4C(F)(F)F)c(Cl)cc23)C(C)C1 , the logged viability, T/C turned out to be 101

Lookup result for O=C(c1ccc(F)c(F)c1Nc1ccc(I)cc1F)N1CC(O)([C@@H]2CCCCN2)C1 + C=CC(=O)N1CCN(c2nc(OCC3CCCN3C)nc3c(F)c(-c4nc(N)cc(C)c4C(F)(F)F)c(Cl)cc23)C(C)C1 ; measured viability, T/C: 71.3

Recorded viability, T/C (compound CC1(O)CCCC1n1c(=O)c(C(F)F)cc2cnc(NC3CCN(S(C)(=O)=O)CC3)nc21 (centres undefined) + C=CC(=O)N1CCN(c2nc(OCC3CCCN3C)nc3c(F)c(-c4nc(N)cc(C)c4C(F)(F)F)c(Cl)cc23)C(C)C1 ): 123

viability, T/C in this record for C=CC(=O)Nc1cc(Nc2nccc(-c3cn(C)c4ccccc34)n2)c(OC)cc1N(C)CCN(C)C + C#Cc1c(F)ccc2cc(O)cc(-c3ncc4c(N5CC6CCC(C5)N6)nc(OCC56CCCN5CC(F)C6)nc4c3F)c12 : 97

So, Cc1nc(N2CCC3(CC2)COC(C)C3N)c(CO)nc1Sc1ccnc(N)c1Cl (centres undefined) + C=CC(=O)N1CCN(c2nc(OCC3CCCN3C)nc3c(F)c(-c4nc(N)cc(C)c4C(F)(F)F)c(Cl)cc23)C(C)C1 ? Its viability, T/C was 91.3

The compound identified as CCN1CCN(Cc2ccc(Nc3ncc(F)c(-c4cc(F)c5nc(C)n(C(C)C)c5c4)n3)nc2)CC1 + C=CC(=O)N1CCN(c2nc(OCC3CCCN3C)nc3c(F)c(-c4nc(N)cc(C)c4C(F)(F)F)c(Cl)cc23)C(C)C1 registered its viability, T/C at 120

Entry C=CC(=O)N1CCN(c2nc(OCC3CCCN3C)nc3c(F)c(-c4nc(N)cc(C)c4C(F)(F)F)c(Cl)cc23)C(C)C1 (centres undefined) + C#Cc1c(F)ccc2cc(O)cc(-c3ncc4c(N5CC6CCC(C5)N6)nc(OCC56CCCN5CC(F)C6)nc4c3F)c12 — recorded viability, T/C = 117

// viability, T/C lookup, compound = NC1c2ccccc2OC12CCN(c1cnc3c(N4CCCc5ncccc54)n[nH]c3n1)CC2 (centres undefined) + C#Cc1c(F)ccc2cc(O)cc(-c3ncc4c(N5CC6CCC(C5)N6)nc(OCC56CCCN5CC(F)C6)nc4c3F)c12 , result: 100

// field: viability, T/C; key: CC(Nc1ccc2c(c1)OCCn1cc(N3C(=O)OCC3C(F)F)nc1-2)C(N)=O (centres undefined) + C=CC(=O)N1CCN(c2nc(OCC3CCCN3C)nc3c(F)c(-c4nc(N)cc(C)c4C(F)(F)F)c(Cl)cc23)C(C)C1 ; value = 99.8

viability, T/C in this record for CC1(O)CCCC1n1c(=O)c(C(F)F)cc2cnc(NC3CCN(S(C)(=O)=O)CC3)nc21 (centres undefined) + C#Cc1c(F)ccc2cc(O)cc(-c3ncc4c(N5CC6CCC(C5)N6)nc(OCC56CCCN5CC(F)C6)nc4c3F)c12 : 116

# viability, T/C (compound: C[C@@H](NC(=O)c1ncnc(N)c1Cl)c1ncc(C(=O)Nc2cc(C(F)(F)F)c(Cl)cn2)s1 + C#Cc1c(F)ccc2cc(O)cc(-c3ncc4c(N5CC6CCC(C5)N6)nc(OCC56CCCN5CC(F)C6)nc4c3F)c12 ) is 105

In plain terms, Nc1ccn(C2OC(CO)C(O)C2(F)F)c(=O)n1 (centres undefined) + C=CC(=O)N1CCN(c2nc(OCC3CCCN3C)nc3c(F)c(-c4nc(N)cc(C)c4C(F)(F)F)c(Cl)cc23)C(C)C1 has a documented viability, T/C of 1.78

Record C=CC(=O)Nc1cc(Nc2nccc(-c3cn(C)c4ccccc34)n2)c(OC)cc1N(C)CCN(C)C + C=CC(=O)N1CCN(c2nc(OCC3CCCN3C)nc3c(F)c(-c4nc(N)cc(C)c4C(F)(F)F)c(Cl)cc23)C(C)C1 , field viability, T/C: 95.3

Query CC(C)n1nc(-c2ccc3oc(N)nc3c2)c2c(N)ncnc21 + C#Cc1c(F)ccc2cc(O)cc(-c3ncc4c(N5CC6CCC(C5)N6)nc(OCC56CCCN5CC(F)C6)nc4c3F)c12 yields viability, T/C of 59.7

Looking up CCC(CC)c1cc(NC2CCC(N)C2)n2nccc2n1 (centres undefined) + C#Cc1c(F)ccc2cc(O)cc(-c3ncc4c(N5CC6CCC(C5)N6)nc(OCC56CCCN5CC(F)C6)nc4c3F)c12 , I see its viability, T/C listed as 90.4

Quick note, viability, T/C for CC(Nc1ccc2c(c1)OCCn1cc(N3C(=O)OCC3C(F)F)nc1-2)C(N)=O (centres undefined) + C#Cc1c(F)ccc2cc(O)cc(-c3ncc4c(N5CC6CCC(C5)N6)nc(OCC56CCCN5CC(F)C6)nc4c3F)c12 landed at 109

// sample C[C@@H](NC(=O)c1ncnc(N)c1Cl)c1ncc(C(=O)Nc2cc(C(F)(F)F)c(Cl)cn2)s1 + C=CC(=O)N1CCN(c2nc(OCC3CCCN3C)nc3c(F)c(-c4nc(N)cc(C)c4C(F)(F)F)c(Cl)cc23)C(C)C1 , its viability, T/C was 101
